- Tested system: SRT-1 (Serratia marcescens)
- Sequence (P18539 22-376): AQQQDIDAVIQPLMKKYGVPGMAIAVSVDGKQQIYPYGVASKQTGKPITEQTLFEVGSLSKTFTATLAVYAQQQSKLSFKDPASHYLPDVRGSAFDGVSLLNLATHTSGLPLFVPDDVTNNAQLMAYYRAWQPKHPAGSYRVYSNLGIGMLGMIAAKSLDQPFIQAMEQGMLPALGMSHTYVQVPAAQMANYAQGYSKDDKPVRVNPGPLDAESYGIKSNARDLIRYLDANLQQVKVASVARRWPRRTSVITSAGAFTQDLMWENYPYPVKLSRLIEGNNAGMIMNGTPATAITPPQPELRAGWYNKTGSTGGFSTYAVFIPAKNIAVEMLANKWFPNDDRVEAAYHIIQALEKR
- Assay remarks: IC50 of β-lactamase inhibitors, crude extract, SRT-1
- Format: biochemical
- Assay conditions: crude extract of E. coli TOP10 recombinant strain, mean of triplicate
Quantity measured: log10 IC50 (log10 of the value in µM)

O=C(NC1CCNCC1)[C@@H]1CC[C@@H]2CN1C(=O)N2OS(=O)(=O)O: 1.57
NCCONC(=O)[C@@H]1CC[C@@H]2CN1C(=O)N2OS(=O)(=O)O: 1.85
O=C(O)C[C@@H]1CC[C@H](NC(=O)Cc2cccs2)B(O)O1: 0.84
O=C(O)c1c(F)ccc2c1OB(O)[C@@H]1C[C@H]21: -0.66
O=C(NNC(=O)[C@@H]1CC[C@@H]2CN1C(=O)N2OS(=O)(=O)O)[C@@H]1CCCNC1: 1.57
NC(=O)[C@@H]1CC[C@@H]2CN1C(=O)N2OS(=O)(=O)O: 0.83
C[C@]1(Cn2ccnn2)[C@H](C(=O)O)N2C(=O)C[C@H]2S1(=O)=O: 1.68
CC1=C[C@@H]2CN(C(=O)N2OS(=O)(=O)O)[C@@H]1C(N)=O: -1.66

* * *

This listing pairs molecules with measured IC50.
- Tested system: MIR-17
- Assay remarks: IC50 of β-lactamase inhibitors, crude extract, MIR-17
- Assay conditions: crude extract of E. coli TOP10 recombinant strain, mean of triplicate
Quantity measured: IC50

NC(=O)[C@@H]1CC[C@@H]2CN1C(=O)N2OS(=O)(=O)O [Avibactam, avibactam]: 1 µM
C[C@]1(Cn2ccnn2)[C@H](C(=O)O)N2C(=O)C[C@H]2S1(=O)=O [Tazobactam, tazobactam]: 83 µM
NCCN[C@H]1CC[C@H](CC(=O)N[C@H]2Cc3cccc(C(=O)O)c3OB2O)CC1 [Taniborbactam, taniborbactam]: 0.03 µM
O=C(NNC(=O)[C@@H]1CC[C@@H]2CN1C(=O)N2OS(=O)(=O)O)[C@@H]1CCCNC1 [Zidebactam, zidebactam]: 0.11 µM
O=C(NC1CCNCC1)[C@@H]1CC[C@@H]2CN1C(=O)N2OS(=O)(=O)O [Relebactam, relebactam]: 1.3 µM
O=C(O)C[C@@H]1CC[C@H](NC(=O)Cc2cccs2)B(O)O1 [Vaborbactam, vaborbactam]: 1.1 µM
O=C(O)[C@H]1/C(=C/CO)O[C@@H]2CC(=O)N21 [Clavulanic acid, clavulanic acid]: > 100 µM

* * *

- Tested system: ADC-50 (Acinetobacter baumannii)
- Assay remarks: IC50 of β-lactamase inhibitors, crude extract, ADC-50
- Type: biochemical, A. baumannii
- Assay conditions: ADC-50; crude extract of E. coli TOP10 recombinant strain; mean of triplicate
pIC50: −log10 of the molar value.
Quantity measured: pIC50

CC1=C[C@@H]2CN(C(=O)N2OS(=O)(=O)O)[C@@H]1C(N)=O [Durlobactam, durlobactam]: 6.77
O=C(NNC(=O)[C@@H]1CC[C@@H]2CN1C(=O)N2OS(=O)(=O)O)[C@@H]1CCCNC1 [Zidebactam, zidebactam]: 5.26
O=C(NC1CCNCC1)[C@@H]1CC[C@@H]2CN1C(=O)N2OS(=O)(=O)O [Relebactam, relebactam]: 4.89
NC(=O)[C@@H]1CC[C@@H]2CN1C(=O)N2OS(=O)(=O)O [Avibactam, avibactam]: 4.21
O=C(O)c1c(F)ccc2c1OB(O)[C@@H]1C[C@H]21 [Xeruborbactam, xeruborbactam]: 5.27
